The measured values listed here are drawn from patent US20210386721A1.

Tested target: PD-1/PD-L1 (Homo sapiens, UniProt Q9NZQ7)
Construct: purchased Cisbio 63ADK000CPDPEB
Sequence (Q9NZQ7 19-238 limits assumed): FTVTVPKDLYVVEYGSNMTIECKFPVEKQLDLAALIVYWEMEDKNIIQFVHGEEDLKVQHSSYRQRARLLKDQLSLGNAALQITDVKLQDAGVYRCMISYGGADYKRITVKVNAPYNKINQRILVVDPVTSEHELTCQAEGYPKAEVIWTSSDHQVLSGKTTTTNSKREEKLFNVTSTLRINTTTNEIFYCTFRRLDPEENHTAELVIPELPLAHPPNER
Assay info: PD-1/PD-L1 binding assay (HTRF, PPI-HTRF)
Assay conditions: HTRF PD1/PD-L1 binding assay kit; 10 nM Tag1-PD-L1; 25° C.
Property measured: IC50

Answered examples (5):
Compound: COc1cc(/C=C/c2cccc(-c3cccc(NC(=O)c4ccc(CN5CC[C@@H](O)C5)cn4)c3F)c2F)c(C(F)(F)F)cc1CN1CC[C@@H](C(=O)O)C1
IC50: 1 nM

Compound: Cc1cc(/C=C/c2cccc(-c3cccc(NC(=O)c4ccc(CN5CC[C@@H](O)C5)cn4)c3C)c2C(F)(F)F)c(Cl)cc1CN1CC[C@@H](C(=O)O)C1
IC50: 3 nM

Compound: COc1cc(/C=C/c2cccc(-c3cccc(-c4nc5cc(CN6CC[C@@H](O)C6)cc(C#N)c5o4)c3C)c2C)c(C(F)(F)F)cc1CN1CCCC[C@H]1C(=O)O
IC50: 4 nM

Compound: COc1cc(/C=C/c2cccc(-c3cccc(NC(=O)c4ccc(CN5CC[C@@H](O)C5)cn4)c3Cl)c2C#N)c(C(F)(F)F)cc1CN1CC[C@@H](C(=O)O)C1
IC50: < 1 nM

Compound: COc1cc(/C=C/c2cccc(-c3cccc(-c4nc5cc(CN6CC[C@@H](O)C6)cc(Cl)c5o4)c3C)c2C)c(C(F)(F)F)cc1CN1CC[C@@H](C(=O)O)C1
IC50: 2 nM

Test system PD-1/PD-L1 (Homo sapiens, UniProt Q9NZQ7); read-out IC50; what value for "COc1cc(/C=C/c2cccc(-c3cccc(NC(=O)c4nc5c(n4C)CCN([C@H]4CC[C@@H](O)CC4)C5)c3C)c2C)c(C(F)(F)F)cc1CN1CC[C@@H](C(=O)O)C1" ?
1 nM

Same for "COC(=O)C[C@H](O)CNCc1cc(C(F)(F)F)c(/C=C/c2cccc(-c3cccc(NC(=O)c4cc(OC)c(CN5CC[C@@H](O)C5)cn4)c3C)c2C)cc1OC"
< 1 nM

What about "COc1cc(/C=C/c2cccc(-c3cccc(NC(=O)c4nc5c(n4C)CCN(C)C5)c3C)c2C)c(C(F)(F)F)cc1CN1CC[C@@H](C(=O)O)C1" ?
1 nM

What about this compound? "COc1cc(/C=C/c2cccc(-c3cccc(-c4nc5cc(CNCCO)cc(C#N)c5o4)c3C)c2C)c(C(F)(F)F)cc1CN1CCCC[C@H]1C(=O)O"
1 nM

Can you handle "Cc1cc(/C=C/c2nccc(-c3cccc(NC(=O)c4nc5c(n4C)CCN(C4CCOCC4)C5)c3C)c2C#N)c(Cl)cc1CN1CCCC[C@H]1C(=O)O" next?
2 nM

Okay, and "COc1cc(/C=C/c2cccc(-c3cccc(NC(=O)c4ccc(CN5CC[C@@H](O)C5)cc4)c3C)c2C)c(C(F)(F)F)cc1CN1CC[C@@H](C(=O)O)C1" ?
1 nM

Could you do the same for "Cc1cc(/C=C/c2nccc(-c3cccc(NC(=O)c4ccc(CN5CCCC[C@@H]5C(=O)O)cn4)c3C)c2C#N)c(Cl)cc1CN1CC[C@@H](O)C1" , please?
2 nM

Param item: "COc1cc(C(=O)Nc2cccc(-c3cccc(/C=C/c4cc(OC)c(CN5CC[C@@H](C(=O)O)C5)cc4C(F)(F)F)c3C)c2C)ncc1CN1CC[C@@H](O)C1"
1 nM

Thanks! And COc1cc(C(=O)Nc2cccc(-c3cccc(/C=C/c4cc(OC)c(CN5CCC(C)(C(=O)O)C5)cc4C(F)(F)F)c3C)c2C)ncc1CN1CC[C@@H](O)C1 (some centres unmarked) ?
1 nM

Another compound to check: "COc1cc(/C=C/c2cccc(-c3cccc(-c4nc5cc(CN6CC[C@@H](O)C6)ccc5o4)c3C)c2C)c(C(F)(F)F)cc1CN1CC[C@@H](C(=O)O)C1"
1 nM

Another compound to check: "Cc1cc(/C=C/c2nccc(-c3cccc(-c4nc5cc(CN6CC[C@@H](O)C6)cc(Cl)c5o4)c3C)c2C#N)c(Cl)cc1CN1CC[C@@H](C(=O)O)C1"
1 nM

Okay, and "COc1cc(/C=C/c2cccc(-c3cccc(-c4nc5cc(CN6CC[C@@H](C(=O)O)C6)cc(C#N)c5o4)c3C)c2C)c(C(F)(F)F)cc1CN1CC[C@H](O)C1" ?
2 nM

Follow-up entry: "Cc1cc(/C=C/c2nccc(-c3cccc(-c4nc5cc(CN6CC[C@@H](O)C6)cc(C#N)c5o4)c3C)c2C#N)c(C(F)(F)F)cc1CN1CC[C@@H](C(=O)O)C1"
1 nM

How about this compound: "COc1cc(/C=C/c2ccnc(-c3cccc(Nc4nccc5cc(CN6CC[C@@H](O)C6)cnc45)c3C)c2C#N)c(C(F)(F)F)cc1CN1CC[C@@H](C(=O)O)C1"
< 1 nM

Further, for "COc1cc(/C=C/c2ccnc(-c3cccc(-c4nc5cc(CN6CC[C@@H](O)C6)cc(C#N)c5o4)c3C)c2C#N)c(C(F)(F)F)cc1CN1CC[C@@H](C(=O)O)C1" ?
1 nM

Another: "COc1cc(/C=C/c2cccc(-c3cccc(-c4nc5cc(CN6CC[C@@H](C(=O)O)C6)cc(C#N)c5o4)c3C)c2C)c(C(F)(F)F)cc1CN[C@@H](C)CO"
2 nM

Consider next the compound "COc1cc(/C=C/c2cccc(-c3cccc(NC(=O)c4nc5c(n4C)CCN(C(C)C)C5)c3C)c2C)c(C(F)(F)F)cc1CN1CC[C@@H](C(=O)O)C1" in the same way.
1 nM

Then this compound: "COc1cc(/C=C/c2cccc(-c3cccc(NC(=O)c4ccc(CN5CC[C@@H](O)C5)cn4)c3C#N)c2C)c(C(F)(F)F)cc1CN1CC[C@@H](C(=O)O)C1"
1 nM

###

Reported IC50 values for the following molecules.
Tested target: PD-1/PD-L1 (Homo sapiens, UniProt Q9NZQ7)
Construct: purchased Cisbio 63ADK000CPDPEB
Assay info: PD-1/PD-L1 binding assay (HTRF, PPI-HTRF)
Assay conditions: HTRF PD1/PD-L1 binding assay kit; 10 nM Tag1-PD-L1; 25° C.
The response must be a number in nM with no trailing unit.

Molecule: COc1cc(/C=C/c2cccc(-c3cccc(NC(=O)c4ccc(CN5CC[C@@H](O)C5)cn4)c3C(F)(F)F)c2C#N)c(C(F)(F)F)cc1CN1CC[C@@H](C(=O)O)C1
Recorded number: 2
//
Molecule: Cc1cc(/C=C/c2nccc(-c3cccc(NC(=O)c4ccc(CN5CC[C@@H](O)C5)cn4)c3C)c2C#N)c(Cl)cc1CN1CC2(CC(C(=O)O)C2)C1
Recorded number: 13
//
Molecule: COc1cc(/C=C/c2cccc(-c3cccc(-c4nc5cc(CN6CC[C@@H](C(=O)O)C6)cc(C(N)=O)c5o4)c3C)c2C)c(C(F)(F)F)cc1CN1CC[C@@H](O)C1
Recorded number: 1
//
Molecule: COc1cc(/C=C/c2cccc(-c3cccc(-c4nc5cc(CN6CC[C@@H](O)C6)ccc5o4)c3C)c2C#N)c(C(F)(F)F)cc1CN1CC[C@@H](C(=O)O)C1
Recorded number: 2
//
Molecule: COc1cc(/C=C/c2cccc(-c3cccc(-c4nc5cc(CN6CC[C@@H](C(=O)O)C6)cc(C#N)c5o4)c3Cl)c2C)c(C(F)(F)F)cc1CN1CC[C@@H](O)C1
Recorded number: 1
//
Molecule: COc1cc(/C=C/c2cccc(-c3cccc(NC(=O)c4ccc(CN5CC[C@@H](O)C5)c(OC)n4)c3C)c2C)c(C(F)(F)F)cc1CN1CCC[C@H]1C(=O)O
Recorded number: 3

Given the molecule "COc1cc(/C=C/c2cccc(-c3cccc(-c4nc5cc(CN6CC[C@H](C(=O)O)C6)cc(C#N)c5o4)c3C)c2C)c(C(F)(F)F)cc1CN1CC[C@H](O)C1" , what is its reported IC50?
2

Input "COc1cc(/C=C/c2cccc(-c3cccc(Nc4n[nH]c5ccc(CN6CC[C@@H](O)C6)cc45)c3C)c2C)c(C(F)(F)F)cc1CN1CC[C@@H](C(=O)O)C1"
3

Cool, now COc1cc(/C=C/c2cccc(-c3cccc(NC(=O)c4ccc(CN5CC[C@@H](O)C5)cn4)c3Cl)c2C)c(C(F)(F)F)cc1CN1CCC(C)(C(=O)O)C1 (some centres unmarked)
1

Same again, this time with "Cc1cc(CN2CCCC[C@H]2C(=O)O)c(C)cc1/C=C/c1nccc(-c2cccc(NC(=O)c3ccc(CN4CC[C@@H](O)C4)cn3)c2C)c1C#N"
2

And "COc1cc(/C=C/c2cccc(-c3cccc(-c4nc5cc(CN6CC[C@@H](C(=O)O)C6)ccc5o4)c3C)c2C)c(C(F)(F)F)cc1CN1CC[C@H](O)C1" ?
2

Now the same for "COc1cc(/C=C/c2cccc(-c3cccc(NC(=O)c4ccc(CN5CC[C@@H](O)C5)cn4)c3Cl)c2C)c(C(F)(F)F)cc1CN1CCCC[C@H]1C(=O)O"
1

Field entry: COc1cc(/C=C/c2cccc(-c3cccc(OC4CCc5cc(CN6CC[C@@H](O)C6)ccc54)c3Cl)c2C)c(C(F)(F)F)cc1CN1CC[C@@H](C(=O)O)C1 (some centres unmarked)
3
